tested on: S. aureus 17314; assay: Antibiotic MIC by microdilution with or without sub-MIC polymer; type: cell-based, Staphylococcus aureus; settings: S. aureus 17314; +½ MIC (3.12 μM) C12KKNC12KNH2
measured_quantity: Antibiotic MIC (µg/mL)
# number only, unit µg/mL dropped from output

1. CC[C@H]1OC(=O)[C@H](C)[C@@H](O[C@H]2C[C@@](C)(OC)[C@@H](O)[C@H](C)O2)[C@H](C)[C@@H](O[C@@H]2O[C@H](C)C[C@H](N(C)C)[C@H]2O)[C@](C)(O)C[C@@H](C)C(=O)[C@H](C)[C@@H](O)[C@]1(C)O [Erythromycin, erythromycin]; 1

Entry CCN1CCN(C(=O)N[C@@H](C(=O)N[C@@H]2C(=O)N3[C@@H]2SC(C)(C)[C@@H]3C(=O)O)c2ccccc2)C(=O)C1=O [Piperacillin, piperacillin] : reported Antibiotic MIC = ? 64
